Recorded TGI, one value per entry.
- Test system: SNB-78 CNS
- procedure summary: NCI tumour cell line growth inhibition, 48 h

In the examples that follow, each entry is paired with its recorded TGI.
c1c(N2CCOCC2)ssc1=[N+]1CCOCC1 = > 100 µM
COc1ccc(C2C(Cl)C(=O)N2n2cnc3ccccc3c2=O)cc1OC (stereo unspecified) = > 100 µM
CC12CC3(C)CC(C)(C1)CC(N=[N+]=[N-])(C2)C3 = > 100 µM
Cc1nc2c(n1CC(C)(C)C)C(=O)c1ccccc1C2=O = > 100 µM
CC1(C)O[C@H]2OC3CCC(=O)CC3(O)[C@H]2O1 (stereo partly specified) = > 100 µM

Kindly state the measured TGI obtained for COC(=O)c1ccc2c(c1)C(NC(C)=O)CCc1cc(OC)c(OC)c(OC)c1-2 (stereo unspecified) with SNB-78 CNS.
> 4.64 µM
